// data source = patent US20260116921A1

Assay: in vitro
Conditions: cynomolgus monkey, tissue homogenate, pH 6.8
READOUT: half-life

Output measured half-life for this item: `CC(=O)NCCCC[C@H](NC(=O)[C@](C)(CC(C)C)NC(=O)[C@H](Cc1ccc2ccccc2c1)NC(=O)[C@H](Cc1ccc(OCCN)cc1)NC(=O)[C@H]1NC(=O)[C@H](CCC(N)=O)NC(=O)[C@H](Cc2c[nH]c3c(C)cccc23)NC(=O)[C@H]([C@@H](C)O)NC(=O)[C@H](CC(N)=O)NC(=O)[C@@H](NC(C)=O)C(C)(C)SSC1(C)C)C(=O)N[C@H](Cc1c[nH]cn1)C(=O)NCCC(N)=O`
> 24 h

====

Assay: Stability in simulated gastric fluid (SGF)
Type: in vitro ADME
Details: pig (pepsin), simulated gastric fluid (SGF) with porcine pepsin, pH=2, 37° C., 20 μM peptide, read-out: SGF t½ (converted)
Entries and their half-life at 20 μM values follow.
I only need the number, in h, no unit after it.

{"MOLECULAR_STRING": "CC(=O)NCCCC[C@H](NC(=O)[C@](C)(CC(C)C)NC(=O)[C@H](Cc1ccc2ccccc2c1)NC(=O)[C@H](Cc1ccc(OCCN)cc1)NC(=O)[C@H]1NC(=O)[C@H](CCC(N)=O)NC(=O)[C@H](Cc2c[nH]c3c(C)cccc23)NC(=O)[C@H]([C@@H](C)O)NC(=O)[C@H](CC(N)=O)NC(=O)[C@@H](NC(C)=O)C(C)(C)SSC1(C)C)C(=O)N[C@@H](CO)C(=O)NCCC(N)=O", "REPORTED_MEASUREMENT": 9}

Output measured half-life at 20 μM for this item: `CC(=O)NCCCC[C@H](NC(=O)C1(NC(=O)[C@H](Cc2ccc3ccccc3c2)NC(=O)[C@H](Cc2ccc(OCCN)cc2)NC(=O)[C@@H]2CSCC[C@H](NC(=O)[C@@H](CCCNC(=N)N)NC(C)=O)C(=O)N[C@@H](CCC(N)=O)C(=O)N[C@@H]([C@@H](C)O)C(=O)N[C@@H](Cc3c[nH]c4c(C)cccc34)C(=O)N[C@@H](CCC(N)=O)C(=O)N2)CCOCC1)C(=O)N[C@@H](CC(N)=O)C(=O)N[C@@H](CC(N)=O)C(N)=O`
1
